Read-out record for human IDO enzyme (IDO1) (Homo sapiens (Human), UniProt P14902): IC50

molecule | result
OC(CC1c2c(F)cccc2-c2cncn21)C1C2CC3CC1CC(O)(C3)C2 (stereo not shown) [Compound 18k-1] | < 500 nM
OC(CC1c2c(F)cccc2-c2cncn21)C12C[C@@H]3C[C@@H](CC(O)(C3)C1)C2 (stereo partly shown) [Compound 15d-2] | > 500 nM
OC(CC1c2c(F)cccc2-c2cncn21)C12C[C@@H]3C[C@@H](CC(O)(C3)C1)C2 (stereo partly shown) [Compound 15d-1] | > 500 nM

Please find the next molecule below.
For this molecule ( OC(CC1c2c(F)cccc2-c2cncn21)C12C[C@@H]3C[C@@H](CC(O)(C3)C1)C2 (stereo partly shown) [Compound 15d] ), measured IC50 is < 100 nM

* * *

Biological target: human TDO enzyme (Homo sapiens (Human), UniProt P48775)
Sequence (P48775 whole entry): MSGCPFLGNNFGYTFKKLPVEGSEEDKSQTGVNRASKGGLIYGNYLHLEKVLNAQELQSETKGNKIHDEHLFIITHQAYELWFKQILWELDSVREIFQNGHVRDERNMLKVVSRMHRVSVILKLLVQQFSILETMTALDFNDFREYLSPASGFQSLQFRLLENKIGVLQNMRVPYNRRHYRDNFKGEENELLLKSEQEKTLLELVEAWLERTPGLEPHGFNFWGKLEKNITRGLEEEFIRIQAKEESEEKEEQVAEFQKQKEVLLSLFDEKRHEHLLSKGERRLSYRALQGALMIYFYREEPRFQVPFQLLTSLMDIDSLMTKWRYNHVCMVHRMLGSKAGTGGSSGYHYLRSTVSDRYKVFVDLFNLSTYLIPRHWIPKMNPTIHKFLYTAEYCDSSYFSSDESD
Experiment: TDO enzyme assay
Type: biochemical
Settings: read-out: TDO (inhibition % at 1000 nM)
readout_label: inhibition at 1 µM

Record OC(CC1c2ccccc2-c2cncn21)C1CCN(c2ccc(C(F)(F)F)cc2)CC1 (centres unmarked) , field inhibition at 1 µM: > 50%

Entry OC(CC1c2ccccc2-c2cncn21)C12CC3CC(CC(C3)C1)C2 (centres unmarked) ; inhibition at 1 µM = > 50%

* * *

pIC50: −log10 of the molar value.
Heads up, these compounds all have pIC50 values measured for human IDO enzyme (IDO1) (Homo sapiens (Human), UniProt P14902).

compound | target_of_assay | pIC50
OC(CC1c2c(F)cccc2-c2cncn21)C12C[C@@H]3C[C@@H](CC(O)(C3)C1)C2 (stereo partly drawn) [Compound 15d-4] | human IDO enzyme (IDO1) (Homo sapiens (Human), UniProt P14902) | < 6.30
OC(CC1c2ccccc2-c2cncn21)C12CC3CC(CC(C3)C1)C2 (stereo not drawn) | human IDO enzyme (IDO1) (Homo sapiens (Human), UniProt P14902) | > 6.30

Turning now to a further record.
Sample OC(CC1c2c(F)cccc2-c2cncn21)C12CC3CC(CC(C3)C1)C2 (stereo not drawn) [Compound 15e] ; pIC50 observed: > 7.00

* * *

Biological target: UniProt P48775
Experiment: TDO enzyme assay
Assay type: biochemical
Conditions: read-out: TDO (inhibition % at 1000 nM)
readout_label: inhibition at 1 µM

Worked examples, 2 molecules total:
molecule | inhibition at 1 µM
OC(C1CCCCC1)C1(C2c3ccccc3-c3cncn32)CC1 (stereo not drawn) [Compound 13] | > 50%
FC(F)(CC1c2ccccc2-c2cncn21)C1CCCCC1 (stereo not drawn) [Compound 6] | > 50%

inhibition at 1 µM for OC(CC1c2ccccc2-c2cncn21)C1CCN(C2CC2)CC1 (stereo not drawn) [Compound 3] is > 50%
